These data points were gathered from patent US20240343803A1.

Target desc: T1, human PVRIG-mFc protein (Acro, PVG-H5253) (human, UniProt Q6DKI7 41-171, limits assumed)
T1 construct: extracellular domain; Bought protein; also called PVRIG-ECD-mFc; not shown: mouse Fc tag of the bought protein
T1 sequence (looked up): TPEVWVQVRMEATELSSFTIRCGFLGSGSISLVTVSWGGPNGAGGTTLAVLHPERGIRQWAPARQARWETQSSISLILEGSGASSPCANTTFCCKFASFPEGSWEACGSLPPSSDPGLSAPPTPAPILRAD
Assay overview: FACS blocking of PVRIG-mFc binding to CHO-K1-CD112 cells; competitor CD112
Reported property: % IC50 to parental Ab (%)
Report as a plain number; the unit % is understood.

Look over these answered cases.
binder PVRIG-A118-H2 (Fc fusion, VHH-human IgG1 Fc format is stated for the parental VHH antibodies; not restated for the humanized variants; also called A118.VH2; not shown: human IgG1 hinge-CH2-CH3 (Fc)) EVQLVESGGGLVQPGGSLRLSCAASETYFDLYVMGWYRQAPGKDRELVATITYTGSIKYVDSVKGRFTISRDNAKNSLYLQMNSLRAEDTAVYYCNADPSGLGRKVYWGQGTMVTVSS , % IC50 to parental Ab observed: 115

binder PVRIG-A50 (Fc fusion, Alpaca VHH expressed as VHH-hinge-CH2-CH3 of human IgG1 (heavy-chain antibody); also called PVRIG-50; not shown: human IgG1 hinge-CH2-CH3 (Fc)) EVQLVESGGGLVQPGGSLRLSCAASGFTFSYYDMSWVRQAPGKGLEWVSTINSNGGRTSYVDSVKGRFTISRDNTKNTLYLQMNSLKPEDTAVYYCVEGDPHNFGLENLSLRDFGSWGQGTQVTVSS , % IC50 to parental Ab observed: 100

binder PVRIG-A118-H4 (Fc fusion, VHH-human IgG1 Fc format is stated for the parental VHH antibodies; not restated for the humanized variants; also called A118.VH4; not shown: human IgG1 hinge-CH2-CH3 (Fc)) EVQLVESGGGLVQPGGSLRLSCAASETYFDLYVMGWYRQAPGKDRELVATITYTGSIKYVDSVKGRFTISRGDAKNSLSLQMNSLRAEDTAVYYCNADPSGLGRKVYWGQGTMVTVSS , % IC50 to parental Ab observed: 100

Continuing:
binder PVRIG-A50-H1c (Fc fusion, VHH-human IgG1 Fc format is stated for the parental VHH antibodies; not restated for the humanized variants; also called A50.VH1c; not shown: human IgG1 hinge-CH2-CH3 (Fc)) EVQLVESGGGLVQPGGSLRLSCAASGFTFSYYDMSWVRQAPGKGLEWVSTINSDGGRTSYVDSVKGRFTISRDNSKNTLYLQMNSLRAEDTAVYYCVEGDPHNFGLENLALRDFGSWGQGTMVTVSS , % IC50 to parental Ab observed: 105

binder PVRIG-A118 (Fc fusion, Alpaca VHH expressed as VHH-hinge-CH2-CH3 of human IgG1; not shown: human IgG1 hinge-CH2-CH3 (Fc)) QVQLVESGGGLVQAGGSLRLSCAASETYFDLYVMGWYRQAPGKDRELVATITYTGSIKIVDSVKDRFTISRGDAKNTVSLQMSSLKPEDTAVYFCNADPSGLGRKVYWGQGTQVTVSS , % IC50 to parental Ab observed: 100

binder PVRIG-A50-H1b (Fc fusion, VHH-human IgG1 Fc format is stated for the parental VHH antibodies; not restated for the humanized variants; also called A50.VH1b; not shown: human IgG1 hinge-CH2-CH3 (Fc)) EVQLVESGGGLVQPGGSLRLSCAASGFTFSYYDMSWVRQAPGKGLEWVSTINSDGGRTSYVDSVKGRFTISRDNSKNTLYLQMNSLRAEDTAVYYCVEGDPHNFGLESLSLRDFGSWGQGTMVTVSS , % IC50 to parental Ab observed: 81.4

binder PVRIG-A50-H1d (Fc fusion, VHH-human IgG1 Fc format is stated for the parental VHH antibodies; not restated for the humanized variants; also called A50.VH1d; not shown: human IgG1 hinge-CH2-CH3 (Fc)) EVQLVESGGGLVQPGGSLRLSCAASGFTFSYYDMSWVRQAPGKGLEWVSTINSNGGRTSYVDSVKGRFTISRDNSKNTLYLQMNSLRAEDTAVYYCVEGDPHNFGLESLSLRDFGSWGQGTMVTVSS , % IC50 to parental Ab observed: 98.4

binder PVRIG-A105-H5 (Fc fusion, VHH-human IgG1 Fc format is stated for the parental VHH antibodies; not restated for the humanized variants; also called A105.VH5; not shown: human IgG1 hinge-CH2-CH3 (Fc)) EVQLVESGGGLVQPGGSLRLSCAASGRTFDRHTMTWFRQAPGKEREFVATASRIPGDTYYVDSVKGRFTISRDNAKNSLYLQMNSLRAEDTAVYYCAATSAYCSEVDCYEKGSWYDNWGQGIQVTVSS , % IC50 to parental Ab observed: 106

binder PVRIG-A105 (Fc fusion, Alpaca VHH expressed as VHH-hinge-CH2-CH3 of human IgG1; not shown: human IgG1 hinge-CH2-CH3 (Fc)) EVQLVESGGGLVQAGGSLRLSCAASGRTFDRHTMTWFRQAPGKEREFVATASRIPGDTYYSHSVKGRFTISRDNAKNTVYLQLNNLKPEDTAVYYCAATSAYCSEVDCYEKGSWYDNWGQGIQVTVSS , % IC50 to parental Ab observed: 100

binder PVRIG-A105-H1 (Fc fusion, VHH-human IgG1 Fc format is stated for the parental VHH antibodies; not restated for the humanized variants; also called A105.VH1; not shown: human IgG1 hinge-CH2-CH3 (Fc)) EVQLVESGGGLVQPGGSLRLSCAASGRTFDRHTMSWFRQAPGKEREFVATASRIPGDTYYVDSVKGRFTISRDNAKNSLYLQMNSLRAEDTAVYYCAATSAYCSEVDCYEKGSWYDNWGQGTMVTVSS , % IC50 to parental Ab observed: 99.7

binder PVRIG-A50-H1a (Fc fusion, VHH-human IgG1 Fc format is stated for the parental VHH antibodies; not restated for the humanized variants; also called A50.VH1a; not shown: human IgG1 hinge-CH2-CH3 (Fc)) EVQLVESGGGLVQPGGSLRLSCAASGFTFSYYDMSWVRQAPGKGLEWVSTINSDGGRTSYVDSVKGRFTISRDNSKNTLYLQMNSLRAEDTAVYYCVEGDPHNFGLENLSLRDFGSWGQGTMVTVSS , % IC50 to parental Ab observed: 103
